OUTCOME_MEASURE: melting point

smiles_representation=CC[C@@H](Cc1ccc(OC)c(C(=O)NCc2ccc(Oc3cc(C(F)(F)F)cc(C(F)(F)F)c3)cc2)c1)C(=O)O outcome_measure="melting point" recorded_result="125 to 127 °C"
smiles_representation=CC[C@@H](Cc1ccc(OC)c(C(=O)NCc2ccc(Oc3ccc(Cl)c(C(F)(F)F)c3)cc2)c1)C(=O)O outcome_measure="melting point" recorded_result="141 to 142 °C"
smiles_representation=CC[C@@H](Cc1ccc(OC)c(C(=O)NCc2ccc(Oc3cc(F)c(F)c(F)c3)cc2)c1)C(=O)O outcome_measure="melting point" recorded_result="133 to 135 °C"
smiles_representation=CC[C@@H](Cc1ccc(OC)c(C(=O)NCc2ccc(Oc3cc(F)cc(C(F)(F)F)c3)cc2)c1)C(=O)O outcome_measure="melting point" recorded_result="125 to 128 °C"
smiles_representation=CC[C@@H](Cc1ccc(OC)c(C(=O)NCc2ccc(Oc3ccc(Cl)c(Cl)c3)cc2)c1)C(=O)O outcome_measure="melting point" recorded_result="139 to 141 °C"
smiles_representation=CC[C@@H](Cc1ccc(OC)c(C(=O)NCc2ccc(Oc3cccc(F)c3F)cc2)c1)C(=O)O outcome_measure="melting point" recorded_result="93 to 95 °C"
smiles_representation=CC[C@@H](Cc1ccc(OC)c(C(=O)NCc2ccc(Oc3cc(F)ccc3F)cc2)c1)C(=O)O outcome_measure="melting point" recorded_result="116 to 118 °C"
smiles_representation=CC[C@@H](Cc1ccc(OC)c(C(=O)NCc2ccc(Oc3cc(F)cc(F)c3)cc2)c1)C(=O)O outcome_measure="melting point" recorded_result="140 to 142 °C"
smiles_representation=CC[C@@H](Cc1ccc(OC)c(C(=O)NCc2ccc(Oc3cc(Cl)cc(Cl)c3)cc2)c1)C(=O)O outcome_measure="melting point" recorded_result="145 to 148 °C"
smiles_representation=CC[C@@H](Cc1ccc(OC)c(C(=O)NCc2ccc(Oc3ccc(F)c(F)c3)cc2)c1)C(=O)O outcome_measure="melting point" recorded_result="118 to 120 °C"
smiles_representation=CC[C@@H](Cc1ccc(OC)c(C(=O)NCc2ccc(Oc3ccc(Cl)c(F)c3)cc2)c1)C(=O)O outcome_measure="melting point" recorded_result="117 to 118 °C"
smiles_representation=CC[C@@H](Cc1ccc(OC)c(C(=O)NCc2ccc(Oc3c(F)cccc3F)cc2)c1)C(=O)O outcome_measure="melting point" recorded_result="106 to 108 °C"
smiles_representation=CC[C@@H](Cc1ccc(OC)c(C(=O)NCc2ccc(Oc3ccc(Br)c(Cl)c3)cc2)c1)C(=O)O outcome_measure="melting point" recorded_result="140 to 142 °C"
